Assay: SGF digest of 168 nutritive polypeptide library, intact protein by LC-MS/MS
Type: in vitro ADME
Settings: 168 nutritive polypeptide library SGF digest, LC-MS/MS spectral counts
EXPERIMENTAL_READOUT: % Intact Protein at 10 min (%)
One number for each entry, in %.

Reported % Intact Protein at 10 min for SEQID-00602: protein of the 168 nutritive polypeptide library (protein, listed as Lactobacillus acidophilus, source: /note="strain 30SC", protein of the 168 nutritive polypeptide library) MKSYMKKIAAVVAVAGVALSTAACSNGGSNSTVASYKGGKITQQQYYDEMKKSQAGKSTLANMIINRALEQQYGKYVSSKKVDKQYNNYKKQYGSQFSAVLQQNGMTASSFKENLKTNLLSEQALKHIKKISKKQEQQAWKSYQPKVTVQHILVAKKSTAQSIIKQLKDGKSFKSLAKKYSLDTATKNKAGKLPAFDSTDNTLDSSFKTAAFKLKTGEVTSTPVKSQSGYHVIKMISHPAKGKFADHKKAIDDEIYASMAQDQATMKDVISTVLKRADVSIKDSDLKDVLASYVSTTSATK was 0

Reported % Intact Protein at 10 min for SEQID-00641: protein of the 168 nutritive polypeptide library (protein, listed as Saccharomyces cerevisiae, source: /note="strain ATCC 204508 / S288c", protein of the 168 nutritive polypeptide library) MLPRSALARSLQLQRGVAARFYSEGSTGTPRGSGSEDSFVKRERATEDFFVRQREKEQLRHLKEQLEKQRKKIDSLENKIDSMTK was 21.2

Reported % Intact Protein at 10 min for SEQID-00520: protein of the 168 nutritive polypeptide library (protein, listed as Gallus gallus) MSDEEKKRRAATARRQHLKSAMLQLAVTEIEKEAAAKEVEKQNYLAEHCPPLSLPGSMQELQELCKKLHAKIDSVDEERYDTEVKLQKTNKELEDLSQKLFDLRGKFKRPPLRRVRMSADAMLRALLGSKHKVNMDLRANLKQVKKEDTEKEKDLRDVGDWRKNIEEKSGMEGRKKMFEAGES was 0

Reported % Intact Protein at 10 min for SEQID-00643: protein of the 168 nutritive polypeptide library (protein, listed as Linum usitatissimum) MVGCGRIGKLLLQRLKPFGCNLLYHDRLKMEPELETQIGAKFEEDVDAMLPKCDVVVINTPLTEKTKGMFDKDRILKMKKG was 13.6

Reported % Intact Protein at 10 min for SEQID-00648: protein of the 168 nutritive polypeptide library (protein, Arthrospira platensis C1, protein of the 168 nutritive polypeptide library) MKRVHLPTDRETGKFRGFAFVEMNTEEEEIHAIEELDGAEWMGREIRVNLARPREDKKPSDRGGRKPRY was 39.5

Then there is this molecule:
Reported % Intact Protein at 10 min for SEQID-00524: protein of the 168 nutritive polypeptide library (protein, Ovis aries, protein of the 168 nutritive polypeptide library) MPAWYSIDSRVRGTSLVVKGLKENVEYHFRVSAENQFGISKPMKSEEPVIPKTPLSKASSNHNTVNFLS was 0
